experiment: chemical genetic growth profiling, strain panel (AID 1159580);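 note: tested at 20 µM; growth read once vehicle control cultures reached saturation at 30 °C; 1 = growth at the plate median or of vehicle wells; lower values mean less growth of the strain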; details: S. cerevisiae deletion strains, growth OD, locus YNL307C, strain MCK1, active compounds read low
Screen size: about 5,500 compounds; about 2,000 (36%) were called active. Roughly 18% stayed inconclusive and do not appear here. This is one part of the list.
# normalized growth binned as small value: < 0.9; mid value: ≥ 0.9 and < 1; large value: ≥ 1

{"Given Smiles": "CC(C)=CCOc1c2occc2cc2ccc(=O)oc12", "Qualitative Label": "small value"}
{"Given Smiles": "COc1cc(OC)cc(OC)c1", "Qualitative Label": "small value"}
{"Given Smiles": "CC(C)=CCOc1cc2oc(=O)ccc2cc1O", "Qualitative Label": "small value"}
{"Given Smiles": "CCCCCN=C(N)N/N=C\\c1c[nH]c2ccc(OC)cc12", "Qualitative Label": "large value"}
{"Given Smiles": "COc1cc2ccc(=O)oc2c(OC)c1OC", "Qualitative Label": "large value"}
{"Given Smiles": "COc1ccc2c(c1)[nH]c1c(C)nccc12", "Qualitative Label": "mid value"}

* * *

Quick reference: normalized growth of the listed items.
test: chemical genetic growth profiling, strain panel (AID 1159580);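 note: tested at 20 µM; growth read once vehicle control cultures reached saturation at 30 °C; 1 = growth at the plate median or of vehicle wells; lower values mean less growth of the strain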; settings: S. cerevisiae deletion strains, growth OD, locus YNL298W, strain CLA4 (second series), active compounds read low
Among all 5,500 compounds or so, about 2,000 (36%) were called active. About 18% were inconclusive and are not listed. The list shows a part of the results.
Property: normalized growth

{"Compound": "CC1=CC(C)(C)NC(=S)N1", "Property": "normalized growth", "Endpoint Value": 1}
{"Compound": "N#CCCNc1cc(C(F)(F)F)cc(C(F)(F)F)c1", "Property": "normalized growth", "Endpoint Value": 0.954}
{"Compound": "Cc1ccc(/C(C#N)=C2C=C/C(=N/O)C(Cl)=C\\2Cl)cc1", "Property": "normalized growth", "Endpoint Value": 0.885}
{"Compound": "O=C(NC(=S)Nc1ccc(Cl)cc1)c1ccc([N+](=O)[O-])o1", "Property": "normalized growth", "Endpoint Value": 0.912}
{"Compound": "Cc1onc(-c2c(F)cccc2Cl)c1C(=O)N1CCN(c2ncccc2C(F)(F)F)CC1", "Property": "normalized growth", "Endpoint Value": 0.965}
{"Compound": "Cc1ccc(S(=O)(=O)/C(C#N)=N\\O)cc1", "Property": "normalized growth", "Endpoint Value": 0.977}
{"Compound": "COc1ccc(/C(C#N)=C/c2ccc(OC)c(OC)c2)cc1", "Property": "normalized growth", "Endpoint Value": 0.936}
{"Compound": "NNC(=S)Nc1cc(C(F)(F)F)ccc1Cl", "Property": "normalized growth", "Endpoint Value": 0.408}
{"Compound": "COc1ccc(/C(C)=N\\NC2=NCCCN2)cc1", "Property": "normalized growth", "Endpoint Value": 0.966}
{"Compound": "COc1ccc(/C=C(\\C#N)c2nc3ccccc3[nH]2)cc1OC", "Property": "normalized growth", "Endpoint Value": 0.856}
{"Compound": "CCN(C(=S)Nc1ccc(OC)cc1)c1ccccc1", "Property": "normalized growth", "Endpoint Value": 0.99}
{"Compound": "N#C/C(=C\\Nc1ccc2c(c1)OCCO2)S(=O)(=O)c1ccc(C(F)(F)F)cn1", "Property": "normalized growth", "Endpoint Value": 0.835}
{"Compound": "NC(=S)Nc1cc(Cl)ccc1Cl", "Property": "normalized growth", "Endpoint Value": 0.944}
{"Compound": "N/C(=N/OC(=O)C(Cl)Cl)c1cccc(Cl)c1Cl", "Property": "normalized growth", "Endpoint Value": 0.965}
{"Compound": "CC(=O)NN(C)c1ccc(C(F)(F)F)cc1[N+](=O)[O-]", "Property": "normalized growth", "Endpoint Value": 1.01}
{"Compound": "CCC(=O)Oc1ccc(NC(=S)NCCCO)cc1", "Property": "normalized growth", "Endpoint Value": 1.01}
{"Compound": "CC(NC(=S)Nc1ccc(Oc2ccc(Cl)cc2)cc1)c1ccccc1 (configuration not stated)", "Property": "normalized growth", "Endpoint Value": 0.918}
{"Compound": "FC(F)(F)c1cc(NC2=NCCN=C(Nc3cc(C(F)(F)F)cc(C(F)(F)F)c3)SS2)cc(C(F)(F)F)c1", "Property": "normalized growth", "Endpoint Value": 1.01}
{"Compound": "COc1ccc(/C=N\\NC(=O)CC#N)cc1OC", "Property": "normalized growth", "Endpoint Value": 1.02}
{"Compound": "Cc1ccc(S(=O)(=O)Oc2ccc(CC#N)cc2)cc1", "Property": "normalized growth", "Endpoint Value": 0.977}
{"Compound": "NC(=S)c1ccc2nonc2c1", "Property": "normalized growth", "Endpoint Value": 1.02}
{"Compound": "CC(C)(C)c1ccc(C(=O)N/N=C\\c2cc(Cl)cc(Cl)c2O)cc1", "Property": "normalized growth", "Endpoint Value": 0.642}

* * *

experiment: chemical genetic growth profiling, strain panel (AID 1159580);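 note: tested at 20 µM; growth read once vehicle control cultures reached saturation at 30 °C; 1 = growth at the plate median or of vehicle wells; lower values mean less growth of the strain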; conditions: S. cerevisiae deletion strains, growth OD, locus YDR052C, strain DBF4
Screen size: about 5,500 compounds; about 2,000 (36%) were called active. Another 18% or so got no clear call; they are omitted. No stated cut-off is given here; in the data, active means normalized growth mostly below about 0.91 (no sharp cut-off); inconclusive means no clear call, values can overlap the other calls; inactive means mostly above about 0.92. This is one part of the list.
Possible outcomes: active, inactive

{"Molecule": "CC(C)(C)c1cc(C(=O)/C(C#N)=N\\Nc2ccc(Cl)cc2)no1", "Qualitative Label": "inactive"}
{"Molecule": "FC(F)(F)c1ccc(C2Sc3ccccc3N=C3c4ccccc4CC32)cc1 (configuration not stated)", "Qualitative Label": "inactive"}
{"Molecule": "O=C(N/N=C\\c1cc(Cl)cc(Cl)c1O)c1ccccc1Oc1ccccc1", "Qualitative Label": "inactive"}
{"Molecule": "CC1CCc2c(sc3ncnc(Sc4ccccc4)c23)C1 (configuration not stated)", "Qualitative Label": "inactive"}
{"Molecule": "N#CC(C#N)=NNc1ccc(-n2ccc(C(F)(F)F)n2)cc1", "Qualitative Label": "active"}
{"Molecule": "Cc1ccc(C(=O)Nc2ccc3ccccc3n2)cc1", "Qualitative Label": "inactive"}
{"Molecule": "O=C1CSC(=Nc2cc(Cl)cc(Cl)c2)N1Cc1cccnc1", "Qualitative Label": "inactive"}
{"Molecule": "Nc1ccccc1C(=O)N/N=C\\c1cc(Cl)cc(Cl)c1O", "Qualitative Label": "inactive"}
{"Molecule": "COc1cc(OC)cc(/C(N)=N\\O)c1", "Qualitative Label": "inactive"}
{"Molecule": "COC(=O)c1ccc(Oc2c(C(F)(F)F)oc3cc(O)ccc3c2=O)cc1", "Qualitative Label": "inactive"}
{"Molecule": "O=C1OC(Nc2ccccc2SCc2ccccc2Cl)c2ccccc21 (configuration not stated)", "Qualitative Label": "inactive"}
{"Molecule": "N#Cc1c(N)sc2c1CCc1ccccc1-2", "Qualitative Label": "active"}

* * *

assay: chemical genetic growth profiling, strain panel (AID 1159580);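 note: tested at 20 µM; growth read once vehicle control cultures reached saturation at 30 °C; 1 = growth at the plate median or of vehicle wells; lower values mean less growth of the strain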; conditions: S. cerevisiae deletion strains, growth OD, locus YKL085W, strain MDH1 (second series), active compounds read low
In all, about 5,500 compounds went through this assay and about 2,000 (36%) were called active. Inconclusive results (about 18%) are left out. This is one part of the list.
Item-by-item account of normalized growth

{"Compound": "COc1ccc2c(c1)[nH]c1c(C)nccc12", "normalized growth": 0.979}
{"Compound": "CC(C)=CCOc1cc2oc(=O)ccc2cc1O", "normalized growth": 0.959}
{"Compound": "Nc1ncnc2c1ncn2[C@@H]1O[C@H](CO)[C@@H](O)[C@@H]1O", "normalized growth": 1}
{"Compound": "CC(=O)OC1CCC2C3CCc4cc(O)ccc4C3CCC12C (centres undefined)", "normalized growth": 0.98}
{"Compound": "COc1ccc2ccc(=O)oc2c1CC=C(C)C", "normalized growth": 0.916}
{"Compound": "Cn1nnnc1SCC1=C(C(=O)O)N2C(=O)C(NC(=O)C(OC=O)c3ccccc3)C2SC1 (centres undefined)", "normalized growth": 1}
{"Compound": "CC(C)=CCOc1c2occc2cc2ccc(=O)oc12", "normalized growth": 0.898}
{"Compound": "CCCCC(=O)O[C@H]1CCC2C3CCc4cc(O)ccc4C3CC[C@@]21C (some centres undefined)", "normalized growth": 1.01}
{"Compound": "COc1c2occc2cc2ccc(=O)oc12", "normalized growth": 1}
{"Compound": "CCS(=O)(=O)CCn1c([N+](=O)[O-])cnc1C", "normalized growth": 1.04}
{"Compound": "CCC(=O)O[C@H]1CCC2C3CCc4cc(O)ccc4C3CC[C@@]21C (some centres undefined)", "normalized growth": 0.936}
{"Compound": "Cc1c(N(C)CS(=O)(=O)O)c(=O)n(-c2ccccc2)n1C", "normalized growth": 0.99}
{"Compound": "COc1cc2ccc(=O)oc2c(OC)c1OC", "normalized growth": 1.01}
{"Compound": "COc1cc2ccc(=O)oc2cc1O", "normalized growth": 0.995}
{"Compound": "C=C(C)c1cc2cc(C(C)=O)c(O)cc2o1", "normalized growth": 0.918}
{"Compound": "CNC(=O)CSP(=S)(OC)OC", "normalized growth": 1.01}
{"Compound": "CC(=O)Oc1ccc2c(c1)CCC1C2CC[C@@]2(C)C1CC[C@@H]2OC(C)=O (some centres undefined)", "normalized growth": 0.959}
{"Compound": "CC1=C(C(=O)O)N2C(=O)[C@@H](NC(=O)[C@H](N)C3=CCC=CC3)C2SC1 (some centres undefined)", "normalized growth": 0.978}
{"Compound": "COc1cc2ccc(=O)oc2c2ccoc12", "normalized growth": 0.999}
{"Compound": "c1ccc2c(c1)[nH]c1cnccc12", "normalized growth": 0.98}
{"Compound": "COc1cc2ccc(=O)oc2c(O)c1O", "normalized growth": 1}
{"Compound": "NCCS", "normalized growth": 1.01}
{"Compound": "O=C1c2ccccc2C(=O)c2c1ccc(O)c2O", "normalized growth": 0.868}
{"Compound": "COc1ccc(Cc2nccc3cc(OC)c(OC)cc23)cc1OC", "normalized growth": 0.991}
